assay: chemical genetic growth profiling, strain panel (AID 1159580);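 also: tested at 20 µM; growth read once vehicle control cultures reached saturation at 30 °C; 1 = growth at the plate median or of vehicle wells; lower values mean less growth of the strain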; details: S. cerevisiae deletion strains, growth OD, locus YOR290C, strain snf2, stronger effect = lower value
About 2,000 (36%) of roughly 5,500 compounds were called active. About 18% were inconclusive and are not listed. The list shows a part of the results.
MEASURED_PROPERTY: normalized growth
Please respond with just the number, no unit label.

Worked examples, 3 compounds total:
[
  {
    "COMPOUND": "CC(=O)NC1C(O)OC(COS(=O)(=O)O)C(OC2OC(C(=O)O)C(OC3OC(CO)C(OC4OC(C(=O)O)C(O)C(O)C4OS(=O)(=O)O)C(OS(=O)(=O)O)C3NS(=O)(=O)O)C(O)C2OS(=O)(=O)O)C1O (stereo not given)",
    "MEASURED_PROPERTY": "normalized growth",
    "NUMERIC_VALUE": 0.961
  },
  {
    "COMPOUND": "COCC1=C(C(=O)OC(C)OC(=O)OC(C)C)N2C(=O)[C@@H](NC(=O)/C(=N\\OC)c3csc(N)n3)[C@H]2SC1 (stereo not given in full)",
    "MEASURED_PROPERTY": "normalized growth",
    "NUMERIC_VALUE": 0.962
  },
  {
    "COMPOUND": "C=C[C@H]1CN2CC[C@H]1C[C@H]2[C@H](O)c1ccnc2ccccc12",
    "MEASURED_PROPERTY": "normalized growth",
    "NUMERIC_VALUE": 0.996
  }
]

Please look up its normalized growth: `CCCCN(CC)c1c([N+](=O)[O-])cc(C(F)(F)F)cc1[N+](=O)[O-]` 1.04

Entry `CC(=O)c1ccc[nH]1` : reported normalized growth = ? 0.992

Fill blank: measured normalized growth of the compound `CC(C)N1C(=O)c2ccccc2NS1(=O)=O` is ____. 0.96

Value lookup for normalized growth; key = ClC1C(Cl)C(Cl)C(Cl)C(Cl)C1Cl (stereo not given) 0.921

Request the reported normalized growth associated with CC(C)c1cc2c(c(O)c1O)[C@@]1(C(=O)O)CCCC(C)(C)C1CC2 (stereo not given in full) 0.945

Which normalized growth is reported for this compound? `O=C(O)c1cccnc1C(=O)O` 0.987

// returns reported normalized growth for input CCC1(C2=NCCN2)Cc2ccccc2O1 (stereo not given) 0.965

====

experiment: chemical genetic growth profiling, strain panel (AID 1159580);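 also: tested at 20 µM; growth read once vehicle control cultures reached saturation at 30 °C; 1 = growth at the plate median or of vehicle wells; lower values mean less growth of the strain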; details: S. cerevisiae deletion strains, growth OD, locus YDR335W, strain msn5
The campaign covered roughly 5,500 compounds. About 2,000 (36%) were called active. Not shown: some 18% with an inconclusive outcome. Cut-off read from the data, not from the text of the source: active = normalized growth mostly below about 0.91 (no sharp cut-off); inconclusive = no clear call, values can overlap the other calls; inactive = mostly above about 0.92. The list shows a part of the results.
I would appreciate it if you answered using one of these outcomes: active, inactive

[
  {
    "MOLECULE": "CCC[C@@H]1C[C@@H](C(=O)N[C@H]([C@H]2O[C@H](SC)[C@H](O)[C@@H](O)[C@H]2O)[C@H](C)O)N(C)C1",
    "CLASS_LABEL": "inactive"
  },
  {
    "MOLECULE": "CC(=O)OC[C@@]1(O)C[C@@]23CCC4c5ccoc5CC[C@]4(C)C2CC[C@@H]1C3 (stereo partly specified)",
    "CLASS_LABEL": "inactive"
  },
  {
    "MOLECULE": "NS(=O)(=O)c1cc2c(cc1Cl)NCNS2(=O)=O",
    "CLASS_LABEL": "inactive"
  },
  {
    "MOLECULE": "O=C(/C=C/c1ccccc1)c1ccc(O)cc1O",
    "CLASS_LABEL": "active"
  },
  {
    "MOLECULE": "COc1cc(Cc2cnc(N)nc2N)cc(OC)c1OC",
    "CLASS_LABEL": "inactive"
  },
  {
    "MOLECULE": "NC(=NCCCCCCN=C(N)N=C(N)Nc1ccc(Cl)cc1)N=C(N)Nc1ccc(Cl)cc1",
    "CLASS_LABEL": "active"
  },
  {
    "MOLECULE": "CNC(C)(C)Cc1ccccc1",
    "CLASS_LABEL": "inactive"
  },
  {
    "MOLECULE": "CC(C)C1CCC(C(=O)N[C@@H](Cc2ccccc2)C(=O)O)CC1 (stereo partly specified)",
    "CLASS_LABEL": "inactive"
  }
]

Tell me the recorded outcome of this test for `CNC(=O)Oc1ccccc1OC(C)C` . inactive

Tell me the recorded outcome of this test for COC1=CC23CCCN2CCc2cc4c(cc2C3C1O)OCO4 (stereo unspecified) . inactive

Name the outcome recorded for C[C@H]1C(=O)CCC2[C@]3(C)CC[C@@]4(C)C5CC(C)(C)CC[C@]5(C)CC[C@]4(C)C3CC[C@@]21C (stereo partly specified) in the assay. inactive

Dear all, I need the recorded test outcome for `O=C(/C=C/c1ccc(O)cc1)c1ccccc1O` , thank you. active

# outcome recorded in this test, key = `O=C1C=C(O)c2ccccc2C1=O` inactive

How did this test come out for `O=C(O)CCC(=O)OC[C@@H](NC(=O)C(Cl)Cl)[C@H](O)c1ccc([N+](=O)[O-])cc1` ? inactive

Assay result, entry `CC(=O)NS(=O)(=O)c1ccc(N)cc1` — outcome? inactive

Please let me know the test result on file for `Cc1cc(O)c2c(c1)C(=O)c1cccc(O)c1C2=O` . inactive

Per the assay record, what outcome was assigned to `C/C(=C\CO)CC[C@H](C)CCC[C@H](C)CCCC(C)C` ? active

Recorded call for Oc1cc2c(cc1O)C(c1ccccc1)CNCC2 (stereo unspecified) ? inactive

// outcome(item) with item = `O=c1c(O)c(-c2ccc(O)cc2)oc2ccccc12` active

Which result was noted for this molecule in the test: COC(=O)C[C@H]1C(C)(C)[C@@H](OC(C)=O)[C@@H]2CC3=C4CC(=O)O[C@@H](c5ccoc5)[C@]4(C)CCC3[C@@]1(C)C2=O (stereo partly specified) inactive

Which outcome was entered for the molecule CC(=O)OC1CCC2(O)CC1(C)CCC1C2CC1(C)C (stereo unspecified) in this test? inactive

Please let me know the test result on file for NC(Cc1ccc(Cl)cc1)C(=O)O (stereo unspecified) . inactive

Could you please tell me the result logged for CC(C)CCCC(C)N (stereo unspecified) in this assay? inactive
